Below are Ki values recorded for Human immunodeficiency virus type 1 protease (Human immunodeficiency virus 1).
Express the result in nM but write the number alone.

• CCC(N=O)c1cccc(CN2C(=O)N(Cc3cccc(C(CC)N=O)c3)[C@H](Cc3ccccc3)[C@H](O)[C@@H](O)[C@H]2Cc2ccccc2)c1 (some centres not stated) = 0.031

Turning to the following compound.
Record lookup: for Human immunodeficiency virus type 1 protease (Human immunodeficiency virus 1), what Ki belongs to CCCC(N=O)c1cccc(CN2C(=O)N(Cc3cccc(C(CCC)N=O)c3)[C@H](Cc3ccccc3)[C@H](O)[C@@H](O)[C@H]2Cc2ccccc2)c1 (some centres not stated) ? 0.031
